Biological target: Full length KDM2B (Homo sapiens (Human))
pIC50: −log10 of the molar value.
Where pIC50 equals or exceeds 9, the correct label is T; where it does not, the label is F.

compound="O=C(c1ccccc1)N1CCN=C1N1CCN(C2CCC2)CC1 [Example 82]" label_class=F
compound="CC(C)c1ccc(S(=O)(=O)N2C[C@H](C)N=C2N2CCN(C3CCC3)CC2)cc1 [Example 47]" label_class=T
compound="CC(C)c1ccc(S(=O)(=O)N2CCN=C2N2CCC(N3CCOCC3)CC2)cc1 [Example 49]" label_class=F
compound="Cc1ccccc1C(=O)N1CCN=C1N1CCN(C2CCC2)CC1 [Example 83]" label_class=F

Next compound, please.
Does the compound O=S(=O)(c1ccc(-c2ccc(C(F)(F)F)cc2)cc1)N1CCN=C1N1CCN(C2CCC2)CC1 [Example 12] have recorded pIC50 that is 9 or more?
T

----------
Biological target: Full length KDM2B (Homo sapiens (Human), UniProt Q8NHM5)
Sequence (Q8NHM5 whole entry): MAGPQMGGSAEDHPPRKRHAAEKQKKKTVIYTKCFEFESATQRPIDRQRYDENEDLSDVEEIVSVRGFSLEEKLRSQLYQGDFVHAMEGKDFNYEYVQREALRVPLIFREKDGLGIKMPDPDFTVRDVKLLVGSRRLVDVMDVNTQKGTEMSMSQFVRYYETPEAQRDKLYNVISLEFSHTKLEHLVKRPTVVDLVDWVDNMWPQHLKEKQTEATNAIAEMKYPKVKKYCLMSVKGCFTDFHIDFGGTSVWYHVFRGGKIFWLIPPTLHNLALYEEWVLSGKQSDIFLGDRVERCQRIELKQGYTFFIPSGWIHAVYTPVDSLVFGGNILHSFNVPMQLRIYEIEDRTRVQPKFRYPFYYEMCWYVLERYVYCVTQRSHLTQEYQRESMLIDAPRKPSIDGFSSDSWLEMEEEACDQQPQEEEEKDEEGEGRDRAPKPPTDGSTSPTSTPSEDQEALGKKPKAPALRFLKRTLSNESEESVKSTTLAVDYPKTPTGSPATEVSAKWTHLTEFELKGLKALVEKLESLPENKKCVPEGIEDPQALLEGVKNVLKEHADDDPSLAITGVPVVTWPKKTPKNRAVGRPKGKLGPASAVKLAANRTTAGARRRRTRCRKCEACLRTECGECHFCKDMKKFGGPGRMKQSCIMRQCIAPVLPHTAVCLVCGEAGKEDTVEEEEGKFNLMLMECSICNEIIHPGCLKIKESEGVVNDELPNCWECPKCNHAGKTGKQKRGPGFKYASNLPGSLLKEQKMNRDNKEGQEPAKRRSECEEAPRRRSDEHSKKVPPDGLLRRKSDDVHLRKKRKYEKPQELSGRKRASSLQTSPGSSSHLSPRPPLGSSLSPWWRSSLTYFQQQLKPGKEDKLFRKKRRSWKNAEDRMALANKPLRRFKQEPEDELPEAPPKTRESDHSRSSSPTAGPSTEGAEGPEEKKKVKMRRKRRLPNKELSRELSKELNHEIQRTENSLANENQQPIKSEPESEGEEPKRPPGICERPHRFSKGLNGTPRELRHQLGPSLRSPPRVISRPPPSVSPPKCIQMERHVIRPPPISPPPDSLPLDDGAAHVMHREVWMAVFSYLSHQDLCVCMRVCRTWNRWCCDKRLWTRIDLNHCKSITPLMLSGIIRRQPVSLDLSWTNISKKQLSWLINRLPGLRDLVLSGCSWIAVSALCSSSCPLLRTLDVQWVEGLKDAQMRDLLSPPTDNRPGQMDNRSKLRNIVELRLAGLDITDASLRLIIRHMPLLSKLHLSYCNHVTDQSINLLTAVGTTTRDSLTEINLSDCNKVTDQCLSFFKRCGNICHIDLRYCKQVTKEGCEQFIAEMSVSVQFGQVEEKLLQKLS
In plain terms, low IC50, meaning strictly below 0.1 nM, gives YES, and everything else gives NO.

Illustrative cases are given below, each with its answer.
compound="CCN1CCN(C2=NCCN2S(=O)(=O)c2ccc(OC(F)F)cc2)CC1 [Example 105]" label_class=NO
compound="CCN1CCN(C2=NCCN2S(=O)(=O)c2ccc(C(F)(F)F)cc2)CC1 [Example 107]" label_class=NO
compound="CC(C)c1ccc(S(=O)(=O)N2C[C@@H](C3CC3)N=C2N2CCN(C3CCC3)CC2)cc1 [Example 41]" label_class=YES
compound="COc1ccc(C(=O)N2CCN=C2N2CCN(C3CCC3)CC2)cc1 [Example 89]" label_class=NO
compound="CCN1CCN(C2=NCCN2S(=O)(=O)c2cccc(OC(F)(F)F)c2)CC1 [Example 99]" label_class=NO
compound="Cn1ccc(-c2ccc(S(=O)(=O)N3CCN=C3N3CCN(C4CCC4)CC3)cc2)n1 [Example 28]" label_class=YES
compound="O=S(=O)(c1ccc(-c2ccccc2F)cc1)N1CCN=C1N1CCN(C2CCC2)CC1 [Example 25]" label_class=YES
compound="Cc1ccc(C(=O)N2CCN=C2N2CCN(C3CCC3)CC2)cc1 [Example 84]" label_class=NO
compound="O=S(=O)(c1ccc(-c2ccncc2)cc1)N1CCN=C1N1CCN(C2CCC2)CC1 [Example 18]" label_class=YES
compound="CC1CCC(N2CCN(C3=NCCN3S(=O)(=O)c3ccc(C(C)C)cc3)CC2)C1 (stereo not drawn) [Example 94]" label_class=NO

Query compound follows.
Hello, I'm reviewing records and need to know if IC50 of CC(C)c1ccc(S(=O)(=O)N2CCN=C2N2C3CCC2CN(C2CCC2)C3)cc1 [Example 48] is below 0.1 nM. Could you check?
NO

----------
Target: Full length KDM2B (Homo sapiens (Human), UniProt Q8NHM5)
pIC50: −log10 of the molar value.
Assign yes (1) to entries whose pIC50 meets or exceeds 9; assign no (0) to the rest.

Examples with answers:
compound="CCN1CCN(C2=NCCN2S(=O)(=O)c2c(F)cccc2F)CC1 [Example 108]" label_class="no (0)"
compound="O=S(=O)(c1cccc2nonc12)N1CCN=C1N1CCN(C2CCC2)CC1 [Example 64]" label_class="yes (1)"
compound="N#Cc1ccccc1-c1ccc(S(=O)(=O)N2CCN=C2N2CCN(C3CCC3)CC2)cc1 [Example 1]" label_class="yes (1)"
compound="O=S(=O)(c1cc(Cl)cc(Cl)c1)N1CCN=C1N1CCN(C2CCC2)CC1 [Example 62]" label_class="yes (1)"

Could you tell me if the measured pIC50 of CCN1CCN(C2=NCCN2S(=O)(=O)c2ccccc2OC(F)(F)F)CC1 [Example 33] reaches 9 or more?
no (0)

Now this one: O=S(=O)(c1ccc(-c2cccc(C(F)(F)F)c2)cc1)N1CCN=C1N1CCN(C2CCC2)CC1 [Example 11]
yes (1)

// query: O=S(=O)(c1ccc(-c2ccccc2Cl)cc1)N1CCN=C1N1CCN(C2CCC2)CC1 [Example 21]
yes (1)

----------
Here's a batch of compounds along with measured pIC50 for Full length KDM2B (Homo sapiens (Human)).
// returns pIC50 (minus log10 of molar concentration), number only

Would you please look over these solved cases?
compound="N#Cc1ccc(-c2ccc(S(=O)(=O)N3CCN=C3N3CCN(C4CCC4)CC3)cc2)cc1 [Example 5]" value_kind=pIC50 reported_result=10.01
compound="CC(=O)Nc1ccc(S(=O)(=O)N2CCN=C2N2CCN(C3CCC3)CC2)cc1 [Example 70]" value_kind=pIC50 reported_result=10.03

Suppose we examine the compound CCN1CCN(C2=N[C@@H](C)CN2S(=O)(=O)c2ccc(C(C)C)cc2)CC1 [Example 44] ; what pIC50 value has been reported?
9.28

----------
A short record of IC50 observed with Full length KDM2B (Homo sapiens (Human)) follows.
Numeric answer only, unit pM assumed.

// solved cases for IC50 follow
compound=COc1cccc(-c2ccc(S(=O)(=O)N3CCN=C3N3CCN(C4CCC4)CC3)cc2)c1 value_kind=IC50 unit_tag=pM reported_result=98
compound="CC(C)c1ccc(S(=O)(=O)N2CCN=C2N2CCN(CC3CC3C)CC2)cc1 (stereo not shown)" value_kind=IC50 unit_tag=pM reported_result=492
compound=N#Cc1cccc(-c2ccc(S(=O)(=O)N3CCN=C3N3CCN(C4CCC4)CC3)cc2)c1 value_kind=IC50 unit_tag=pM reported_result=145
compound=O=S(=O)(c1ccc(C2CC2)cc1)N1CCN=C1N1CCN(C2CCC2)CC1 value_kind=IC50 unit_tag=pM reported_result=58
compound=O=S(=O)(c1ccc(Cl)c(Cl)c1)N1CCN=C1N1CCN(C2CCC2)CC1 value_kind=IC50 unit_tag=pM reported_result=136

Give the measured IC50 of "O=S(=O)(c1ccc(-c2cccs2)cc1)N1CCN=C1N1CCN(C2CCC2)CC1" .
27

Next compound up: "O=S(=O)(c1ccc(-c2ccccn2)cc1)N1CCN=C1N1CCN(C2CCC2)CC1"
102

----------
What follows is a collection of IC50 values obtained with Full length KDM2B (Homo sapiens (Human), UniProt Q8NHM5).

sample_smiles=CCN1CCN(C2=NCCN2S(=O)(=O)c2ccc(OC)cc2)CC1 reported_result="5.45 nM"
sample_smiles=CCN1CCN(C2=NCCN2S(=O)(=O)c2cccc(OC)c2)CC1 reported_result="3.57 nM"
sample_smiles=CCN1CCN(C2=NCCN2S(=O)(=O)c2ccccc2C#N)CC1 reported_result="9.81 nM"
sample_smiles=CCN1CCN(C2=NCCN2S(=O)(=O)c2ccc(Cl)c(Cl)c2)CC1 reported_result="11.5 nM"
sample_smiles=O=S(=O)(c1ccc(-c2ccccc2)cc1)N1CCN=C1N1CCN(C2CCC2)CC1 reported_result="0.048 nM"
sample_smiles=O=S(=O)(c1cccc(C(F)(F)F)c1)N1CCN=C1N1CCN(C2CCC2)CC1 reported_result="0.278 nM"
sample_smiles=O=S(=O)(c1ccc(-c2cncnc2)cc1)N1CCN=C1N1CCN(C2CCC2)CC1 reported_result="0.06 nM"
sample_smiles=O=C(c1ccccc1Cl)N1CCN=C1N1CCN(C2CCC2)CC1 reported_result="2.23 nM"

Full length KDM2B (Homo sapiens (Human), UniProt Q8NHM5) / IC50 / "CC(C)c1ccc(S(=O)(=O)N2CC3(CCCC3)N=C2N2CCN(C3CCC3)CC2)cc1" : value?
0.049 nM

Next entry: "CCN1CCN(C2=NCCN2S(=O)(=O)c2ccc(-c3ccc(F)cc3)cc2)CC1"
1.02 nM
